B1: HDV Ribozyme (parent)
chain: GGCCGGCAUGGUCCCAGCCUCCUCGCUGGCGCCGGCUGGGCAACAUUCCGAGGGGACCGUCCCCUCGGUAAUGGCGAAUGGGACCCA

# Variants of: B1
# MEASUREMENT DESCRIPTION: self-cleavage, relative activity (ratio to wild type); higher = more cleavage; co-transcriptional
MEASURE NAME: self-cleavage

The following variants have reported results that may help.
{"MUTATION NAME": "U37G U69C", "VALUE OBSERVED": 0.128}
{"MUTATION NAME": "G1U A45C", "VALUE OBSERVED": 0.453}
{"MUTATION NAME": "G39U G59C", "VALUE OBSERVED": 0.671}
{"MUTATION NAME": "G52C U72G", "VALUE OBSERVED": 0.723}
{"MUTATION NAME": "G5A G81C", "VALUE OBSERVED": 0.0791}
{"MUTATION NAME": "G35A U47G", "VALUE OBSERVED": 0.443}

Respond only with self-cleavage recorded for G29C G39C
0.277

Respond only with self-cleavage recorded for U12C G52U
0.35

Respond only with self-cleavage recorded for C30G G59A
0.0692

Respond only with self-cleavage recorded for U20A G80C
0.0992

Respond only with self-cleavage recorded for C13A A78G
0.0773

Respond only with self-cleavage recorded for C19G A43U
0.0594
